- Tgt: UniProtKB P11229
- Sequence (P11229 whole entry): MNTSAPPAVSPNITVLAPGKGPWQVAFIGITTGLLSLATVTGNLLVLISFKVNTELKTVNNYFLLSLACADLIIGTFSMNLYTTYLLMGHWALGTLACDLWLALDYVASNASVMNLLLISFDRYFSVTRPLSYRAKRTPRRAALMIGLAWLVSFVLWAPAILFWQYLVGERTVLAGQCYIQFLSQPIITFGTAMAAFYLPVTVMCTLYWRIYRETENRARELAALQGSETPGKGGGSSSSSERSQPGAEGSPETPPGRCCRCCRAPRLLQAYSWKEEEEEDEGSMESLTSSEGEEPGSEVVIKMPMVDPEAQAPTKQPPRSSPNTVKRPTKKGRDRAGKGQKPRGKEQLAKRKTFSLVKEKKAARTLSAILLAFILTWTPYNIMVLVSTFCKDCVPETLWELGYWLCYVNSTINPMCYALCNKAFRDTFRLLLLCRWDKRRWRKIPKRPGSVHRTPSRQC
- Test protocol: Antagonist activity against human cloned muscarinic M1 receptor expressed in CHO cells assessed as inhibition of acetylcholine-induced calcium mobilization by measuring ratio of acetylcholine EC50 in presence and absence of compound by FLIPR assay
- Type: functional, cell-based
- Applied conditions: read-out: pA2 (converted)
Field 'label' (enum: Criterion met / Criterion not met). Set to Criterion met when Kb is strictly under 0.8 nM; else Criterion not met.

INSERT INTO measurements (compound_structure_string, classification) VALUES
  ('CN1[C@@H]2CC[C@H]1C[C@@H](CC(C#N)(c1ccccc1)c1ccccc1)C2', 'Criterion met'),
  ('C[N+]1(C)[C@@H]2CC[C@H]1C[C@@H](CC(CO)(c1ccccc1)c1ccccc1)C2.[Br-]', 'Criterion not met'),
  ('C[N+]1(C)[C@@H]2CC[C@H]1C[C@@H](CC(O)(c1ccccc1)c1ccccc1)C2.[Br-]', 'Criterion met'),
  ('CN1[C@@H]2CC[C@H]1C[C@@H](CC(CO)(c1ccccc1)c1ccccc1)C2', 'Criterion not met');

Now turn to the next molecule.
Hello, I'm reviewing records and need to know if Kb of C[N+]1(C)[C@@H]2CC[C@H]1C[C@@H](CC(C#N)(c1ccccc1)c1ccccc1)C2.[Br-] is below 0.8 nM. Could you check? Criterion met

Taken from ChEMBL document CHEMBL1153488.
